These data points were gathered from PubChem BioAssay AID651661.

- run_description: EWS/Fli-driven NR0B1 reporter inhibitors, primary screen, A673 cells, NR0B1 luciferase, luminescence, MLPCN library (AID 651661);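 note: firefly luciferase signal divided by Alamar Blue viability fluorescence both relative to DMSO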
- experimental_context: viability-normalised, at 12.6 µM, hits give high values
About 2,300 (0.66%) of roughly 350,000 compounds were called active. This is one part of a sample in which actives are shown more often than they occur.
Classify: 1 (yes) when inhibition is strictly less than 20%; 0 (no) when inhibition is not.

Below are worked cases with known answers.
Hello, is inhibition of the following compound strictly smaller than 20%? C[C@@H]1CN([C@H](C)CO)C(=O)c2cccc(NC(=O)Nc3ccccc3)c2O[C@@H]1CN(C)C(=O)NC1CCCCC1
1 (yes)

Hello, is inhibition of the following compound strictly smaller than 20%? C[C@H](CO)N1C[C@H](C)[C@H](CN(C)CC2CCCCC2)OCCCC[C@H](C)Oc2ccc(NS(=O)(=O)c3ccc(F)cc3)cc2C1=O
1 (yes)

Hello, is inhibition of the following compound strictly smaller than 20%? C[C@@H]1CN([C@H](C)CO)C(=O)c2cc(NC(=O)Nc3ccc4c(c3)OCO4)ccc2O[C@@H](C)CCCCO[C@@H]1CN(C)Cc1ccc2c(c1)OCO2
1 (yes)

Hello, is inhibition of the following compound strictly smaller than 20%? COCC(=O)Nc1ccc2c(c1)C(=O)N(C)C[C@@H](OC)[C@@H](C)CN(CC1CCCCC1)[C@@H](C)CO2
1 (yes)

Hello, is inhibition of the following compound strictly smaller than 20%? COc1cccc(C#Cc2ccc([C@H]3[C@@H](CO)N(C(=O)c4ccccn4)[C@H]3C#N)cc2)c1
0 (no)

Hello, is inhibition of the following compound strictly smaller than 20%? COc1ccc(-c2nc3c(s2)CCc2onc(-c4ccc(Br)cc4)c2-3)cc1
0 (no)

Next:
Hello, is inhibition of the following compound strictly smaller than 20%? C[C@@H]1CN([C@@H](C)CO)C(=O)c2cc(NS(=O)(=O)c3ccccc3)ccc2O[C@@H]1CN(C)Cc1ccc(C(=O)Nc2ccccc2N)cc1
0 (no)

Hello, is inhibition of the following compound strictly smaller than 20%? C[C@H]1CCCCO[C@@H](CN(C)Cc2ccc3c(c2)OCO3)[C@@H](C)CN([C@@H](C)CO)C(=O)c2cc(NC(=O)Nc3ccc(F)cc3)ccc2O1
0 (no)

---

- run_description: EWS/Fli-driven NR0B1 reporter inhibitors, primary screen, A673 cells, NR0B1 luciferase, luminescence, MLPCN library (AID 651661);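 note: firefly luciferase signal divided by Alamar Blue viability fluorescence both relative to DMSO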
- experimental_context: viability-normalised, at 12.6 µM
Hit rate of the full screen: of about 350,000 compounds, about 2,300 (0.66%) were called active.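 The calls were made as follows: active = mean inhibition of at least 50% after viability correction, with every replicate also passing that limit; inconclusive = mean reaches 50% but only one of two replicates passes; inactive = the rest.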 The sample as a whole holds a higher share of actives than the screen did.
API: response.call in active, inactive

Below are worked cases with known answers.
Record lookup: outcome of this test for CCCn1nc(C(=O)Nc2ccc3nc(C)sc3c2)c2ccccc2c1=O ?
inactive

Record lookup: outcome of this test for C[C@@H]1CN([C@@H](C)CO)S(=O)(=O)c2ccc(-c3ccc(C(=O)N(C)C)cc3)cc2O[C@@H]1CN(C)C(=O)Cc1ccccn1 ?
inactive

Record lookup: outcome of this test for CCCCCCCCn1c2c(c(=N)c3c1CCC3)CCCC2 ?
active

Next:
Record lookup: outcome of this test for COc1ccc(-c2nc(-c3ccccc3)no2)c(OC)c1 ?
active
